The entries below pair compounds with pIC50 values for Tyrosine-protein kinase JAK1 (Homo sapiens, UniProt P23458), as found in several publications.
pIC50: −log10 of the molar value.

compound="CN1CCN(c2ccc(-c3cc4nccn4c(-c4cnn(C(CC#N)C5CC5)c4)n3)cc2)CC1 (centres unmarked)" measvalue="7.00 to 8.00"
compound=CN(c1ncnc2[nH]ccc12)C1CC2(C1)CN(C(=O)c1cnn(C3CC3)c1)C2 measvalue="6.00 to 7.00"
compound=Cn1cc(-c2cc3nccn3c(-c3cnn(C4(CC#N)CN(CC5CCOCC5)C4)c3)n2)cn1 measvalue="< 6.00"

Please state, for each entry, its recorded pIC50.
1. CC(C)(C)S(=O)(=O)Nc1cccc(-n2ccc3cnc(Nc4ccc(C(=O)NC5CCNCC5)c(F)c4)nc32)c1
2. Cc1cc(Nc2nc(N[C@@H]3C[C@H]4CC[C@@H](C3)N4C(=O)[C@@H]3CCCN3)nc3sccc23)n[nH]1

1. 6.69
2. 8.73

Please state, for each entry, its recorded pIC50.
1. COc1cc(F)cc(C#N)c1COc1ccc2cc1COCCCCNC(=O)c1ccc(c(N)c1)-c1ccnc(n1)N2
2. CC1(C)CCC[C@H]1Nc1c(C(N)=O)cnn2cc(-c3ccccc3)cc12
3. CNC(=O)N1C[C@H]2C[C@H](N(C)c3ncnc4[nH]ccc34)C[C@H]2C1
4. N#CCC(=O)N1CCN(n2cnc3cnc4[nH]ccc4c32)C1
5. Cn1cc(-c2cc3nccn3c(-c3cnn(C(CCO)C4CC4(F)F)c3)n2)cn1 (centres unmarked)
6. N#CCC1(n2cc(-c3ncnc4[nH]ccc34)cn2)CN(C2CCN(Cc3ccnc(C(F)(F)F)c3F)CC2)C1
7. CN(c1ncnc2[nH]ccc12)C1CCC2(CC1)CCN(C(=O)Nc1ccc(C#N)cn1)CC2
8. C=CCC1(n2cc(-c3nc(-c4cnn(C)c4)cc4nccn34)cn2)CN(S(=O)(=O)C(F)(F)F)C1

["5.00 to 6.00", 8.54, 6.90, 8.16, "< 6.00", "7.70 to 8.30", "5.00 to 6.00", "7.00 to 8.00"]

Please state, for each entry, its recorded pIC50.
1. CCOC(=O)C(C)(C)n1cc(Nc2ncc3ccn(CC(CC)CC)c3n2)cn1
2. Cc1c2ccc(Nc3ncc(Cl)c(N(C)C4CCN(c5ccc(C#N)cn5)CC4)n3)cc2nn1C
3. [2H]C1([2H])C([C@@H](CC(N)=O)n2cc(-c3ncnc4[nH]ccc34)cn2)C([2H])([2H])C([2H])([2H])C1([2H])[2H]
4. CCn1cc(-c2nc(-c3cnn(C)c3)cc3nccn23)cn1
5. CN(c1ncnc2[nH]ccc12)N1CCC(C(=O)NCC(F)(F)F)CC1
6. Cc1ccc(Cl)cc1NC(=O)N1CCC(N2CC(CC#N)(n3cc(-c4ncnc5[nH]ccc45)cn3)C2)CC1
7. Cc1cc(Nc2ncc(C)c(N3CC(C)(CNC(=O)C4CNCC4(F)F)C3)n2)sn1 (centres unmarked)

["> 7.00", 8.52, "> 7.00", "< 6.00", "7.00 to 8.00", "≥ 8.30", "> 7.30"]

Please state, for each entry, its recorded pIC50.
1. CN(c1ncnc2[nH]ccc12)C1CC2(C1)CN(C(=O)c1ccc3c(c1)ncn3C)C2
2. N#CCC1(n2ccc(-c3ncnc4[nH]ccc34)c2)CN(C2CCN(C(=O)c3ccc(C(F)(F)F)cc3F)CC2)C1
3. N#CCC1(n2cc(-c3ncnc4[nH]ccc34)cn2)CN(C2CCN(C(=O)Nc3nccs3)CC2)C1
4. O=C(NCC(F)(F)F)C1CCN(Nc2ncnc3[nH]ccc23)CC1

["5.00 to 6.00", "7.70 to 8.30", "7.52 to 7.70", "6.00 to 7.00"]
